- System: NCI-H522 lung
- Experiment Summary: NCI tumour cell line growth inhibition, 48 h
Outcome Measure: TGI (µM)
Provide the reading as a plain figure in µM.

Study these solved cases before continuing.
Compound	Measurement Target	Value Observed
CC(=O)O[C@H](C[C@H](C(C)C)N(C)C(=O)[C@@H](NC(=O)[C@H]1CCCCN1C)C(C)C)c1nc(C(=O)N[C@@H](Cc2ccccc2)C[C@H](C)C(=O)O)c(C(C)C)s1	NCI-H522 lung	0.499
Cc1cc(C2=NNC(=O)Cc3cc4c(cc32)OCCO4)cc(C)c1N	NCI-H522 lung	6.19
CCCCCC[C@H]1CC(=O)C2CCCC[C@@]23CC[C@H](CCl)N13 (stereo not given in full) (tested in a mixture with another compound)	NCI-H522 lung	37.5
CN(C)c1ccc(/C=C(\C#N)c2nc3ccccc3n2C)cc1	NCI-H522 lung	16
COc1cc(N/N=C/C#N)cc(OC)c1OC	NCI-H522 lung	3.68

Field: next compound
Request: Could you share which TGI value was measured for CC(C)(C)c1[nH]cnc1/C=c1\[nH]c(=O)/c(=C/c2ccccc2)[nH]c1=O ?
Result: 0.159
